- TESTED_SYSTEM: human serotonin re-uptake transporter (hSERT) (Homo sapiens, UniProt P31645)
- Sequence (P31645 whole entry): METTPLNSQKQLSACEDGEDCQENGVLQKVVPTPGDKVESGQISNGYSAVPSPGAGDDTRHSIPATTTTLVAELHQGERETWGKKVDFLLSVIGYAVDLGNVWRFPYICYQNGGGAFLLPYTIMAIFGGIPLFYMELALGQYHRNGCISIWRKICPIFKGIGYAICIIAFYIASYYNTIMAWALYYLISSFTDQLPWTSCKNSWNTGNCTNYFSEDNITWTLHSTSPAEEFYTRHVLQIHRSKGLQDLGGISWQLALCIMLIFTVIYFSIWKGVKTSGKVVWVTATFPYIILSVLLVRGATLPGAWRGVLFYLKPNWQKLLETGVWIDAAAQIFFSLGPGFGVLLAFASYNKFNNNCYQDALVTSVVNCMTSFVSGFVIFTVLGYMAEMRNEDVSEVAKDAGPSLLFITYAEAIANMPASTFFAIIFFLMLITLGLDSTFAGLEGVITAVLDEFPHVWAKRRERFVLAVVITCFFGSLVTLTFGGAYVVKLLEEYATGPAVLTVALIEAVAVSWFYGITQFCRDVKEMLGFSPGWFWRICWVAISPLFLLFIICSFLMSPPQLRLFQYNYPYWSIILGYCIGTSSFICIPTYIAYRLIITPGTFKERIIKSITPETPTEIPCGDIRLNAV
- ASSAY_OVERVIEW: Serotonin uptake inhibition in HEK-293 cells stably expressing hSERT
- Format: cell-based
- CONDITION_INFO: transfected HEK-293 cells; Ki from IC50 by Cheng-Prusoff; 20 nM (3H) serotonin; read-out: Inhibition constant Ki for tritiated serotonin uptake
Could you please mark Satisfied for values of Ki below 20 µM and Not satisfied for values at or above it?

MOLECULE | DISCRETE_LABEL
C/C(=C\COc1ccc2ccc(=O)oc2c1)CCC(=O)C(C)(C)O [6′-Dehydromarmin, 6′-dehydromarmin] | Satisfied

Request: Given the entry CC(C)=CCC/C(C)=C/COc1ccc2ccc(=O)oc2c1 , would its reported Ki be below 20 µM?
Response: Not satisfied

Request: And CC(=O)OC(C)(C)[C@@H]1Cc2c(ccc3ccc(=O)oc23)O1 [(S)—O-Acetylcolumbianetin] ?
Response: Not satisfied

Request: And C=C(C)[C@H]1COc2cc3oc(=O)ccc3cc2O1 (racemic) ?
Response: Satisfied

Request: And COc1cc2oc(=O)ccc2cc1CC=C(C)C ?
Response: Satisfied
